Source of measurements: patent US20260217797A1

Molecular target: SARS-CoV1 Spike [change] (SARS-CoV-1, UniProt P59594 14-667)
Assay: Octet BLI, IgG, monovalent
parameter: binding result

// known answers, use as guide
Could you tell me which binding result is on file for A-24 (antibody, V domains shown) VH: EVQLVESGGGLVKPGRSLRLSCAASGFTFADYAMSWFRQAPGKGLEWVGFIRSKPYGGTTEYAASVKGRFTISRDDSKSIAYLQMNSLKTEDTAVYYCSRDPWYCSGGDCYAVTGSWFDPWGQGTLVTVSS VL: DIQMTQSPSSLSASVGDRVTITCQASQDIKKYLNWYQQKPGKAPKLLIYDVSNLETGVPSRFSGSGSGTDFTFTISSLQPEDVAIYYCQQYDNLPQTFGQGTKVEIK ?
no binding

Bench note: what binding result did A-23.2 (antibody, V domains shown) VH: EVQLVESGGGLVQPGRSLRLSCAASGFTFDDYAMHWVRQAPGKGLEWVSGTSWNSGTIGYADSVKGRFIISRDNAKNSLYLQMNSLRGEDMALYYCVKDRKREDPSLGGMDVWGQGTTVTVSS VL: SYVLTQPPSVSVAPGQTARITCGGNNIGSKSVHWYQQKPGQAPVLVVYDDTDRPSGIPERFSGSNSGNTATLTISRVEAGDEADYYCQVWDVSSDSYVFGTGTKVTVL show?
no binding

Would you kindly share the measured binding result for A-23 (antibody, V domains shown) VH: EVQLVESGGGLVQPGRSLRLSCAASGFTFDDYAMHWVRQAPGKGLEWVSGISWNSGTIGYADSVKGRFIISRDNAKNSLYLQMNSLRGEDMALYYCGKDRKREDPSLGGMDVWGQGTTVTVSS VL: SYVLTQPPSVSVAPGQTARITCGGNNIGSKSVHWYQQKPGQAPVLVVYDDTDRPSGIPERFSGSNSGNTATLTISRVEAGDEADYYCQVWDSSSDHYVFGTGTKVTVL ?
no binding

Tell me the measured binding result of A-24.1 (antibody, V domains shown) VH: EVQLVESGGGLVKPGRSLRLSCAASGFTFADYTMSWFRQAPGKGLEWVGFIRSEPYGGTTEYAASVKGRFTISRDDSKSIAYLQMNSLKTEDTAVYYCSRDPWYCSGGDCYAVTGSWFDPWGQGTLVTVSS VL: DIQMTQSPSSLSASVGDRVTITCQASQDIKKYLNWYQQKPGKAPKLLIYDVSNLETGVPSRFSGSGSGTDFTFTISSLQPEDVAIYYCQQYDNLPQTFGQGTKVEIK , please.
no binding

Further cases:
Give its binding result value. Item: A-24.3 (antibody, V domains shown) VH: EVQLVESGGGLVKPGRSLRLSCAASGFTFADYTMSWFRQAPGKGLEWVGFIRSEPYGGTTEYAASVKGRFTISRDDSKSIAYLQMNSLKTEDTAVYYCSRDPWYCSGGDCYAVTGSWFDPWGQGTLVTVSS VL: DIQMTQSPSSLSASVGDRVTITCQASRDIKKYLNWYQQKPGKAPKLLIYDVSNLETGVPSRFSGSGSGTDFTFTISSLQPEDVAIYYCQQYDQLPQTFGQGTKVEIE
no binding
